The entries below are paired with their reported Urine volume.
assayText: Urine volume in AVP treated rat at 0.4 ug/kg upon oral administration during 4 hr was determined
Assay type: functional
quantityMeasured: Urine volume (mL)

>  <recordSmiles>
CN(C)Cc1ccc2n1Cc1ccccc1N(C(=O)c1ccc(-c3cccs3)cc1)C2

>  <quantityMeasured>
Urine volume

>  <observedValue>
3

$$$$
>  <recordSmiles>
C=CCOc1ccc(-c2ccc(C(=O)N3Cc4cccn4Cc4ccccc43)cc2)cc1

>  <quantityMeasured>
Urine volume

>  <observedValue>
4

$$$$
>  <recordSmiles>
O=C(c1ccc(-c2ccccc2)cc1)N1Cc2cccn2Cc2ccccc21

>  <quantityMeasured>
Urine volume

>  <observedValue>
3.5

$$$$
>  <recordSmiles>
Cc1ccc(F)cc1C(=O)Nc1ccc(C(=O)N2Cc3cccn3Cc3ccccc32)c(Cl)c1

>  <quantityMeasured>
Urine volume

>  <observedValue>
37

$$$$
>  <recordSmiles>
Cc1ccc(S(=O)(=O)c2ccc(C(=O)N3Cc4cccn4Cc4ccccc43)cc2)cc1

>  <quantityMeasured>
Urine volume

>  <observedValue>
5.5

$$$$
